molecular target: MAGI2_2, Q86UL8; assay: holdup assay; design: key: below the threshold = too weak to quantify, mostly under pKd 3.1 to 4; details: plain residues with an end cap or a label only (N-terminal biotin on a linker: ttds)
Sequence (Q86UL8 410-522): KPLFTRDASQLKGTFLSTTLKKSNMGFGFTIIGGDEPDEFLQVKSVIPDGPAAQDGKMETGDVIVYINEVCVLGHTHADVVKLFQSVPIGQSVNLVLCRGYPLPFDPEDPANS
Observation Type: pKd

[[record]]
binder = "PSRDRKETSI [RALBP1, Q15311]"
observation_type = "pKd"
assay_result = 4.03


Let's switch to this binder now.
Give me measured pKd, please, for this binder: NPDALPETLV [ARHGAP6, O43182]
4.1
